Reference source: PubChem BioAssay (NCI)

Kindly supply the reported growth values for the records listed here.
Tested on: ACHN renal
Assay: NCI-60 one-dose screen, 48 h (100 = growth as untreated, 0 = no growth, -100 = all killed)
Conditions: 10 µM unless noted
About 83,000 compounds went through this panel and 20% of them were active in at least one assay; those are over-represented in the sample as a whole.
Note: unit % is implicit; provide only the numeric part.

q: Looking for the measured growth of Cc1ccccc1[C@H]1C(C(=O)c2ccc(Cl)cc2)C2(N[C@@H]1c1ccccc1)C(=O)Nc1ccc(Cl)cc12 (stereo partly drawn) , can you help?
a: -9.02

q: Looking for the measured growth of "O=C(O)c1ccc(-c2ccc(/C=N/NC(=O)c3[nH]c4ccc(Br)cc4c3-c3ccccc3)s2)cc1" , can you help?
a: 14.2

q: Looking for the measured growth of "CC(=O)NNc1ccc2nnc(-c3ccccc3)n2n1" , can you help?
a: 104

q: Looking for the measured growth of "COc1cc2oc(-c3cccc(C(=O)Nc4ccc(Cl)cc4)c3)cc(=O)c2c(OCC(=O)N[C@@H](Cc2ccccc2)C(=O)O)c1OC" , can you help?
a: 97.2

q: Looking for the measured growth of CCCn1cc(-c2nc(Nc3ccc(C(=O)NCCCCNc4cccc5c4C(=O)N(C4CCC(=O)NC4=O)C5=O)cc3)nc3[nH]ccc23)cn1 (stereo not drawn) , can you help?
a: 75.7

q: Looking for the measured growth of "Cc1c(C(=O)NNC(=O)c2ccc(Cl)cc2)nnn1-c1ccc(Cl)cc1" , can you help?
a: 103

q: Looking for the measured growth of COc1c(F)ccc(C(=O)Nc2ccc3nc(NC(=O)C4CCCN(S(=O)(=O)c5ccc(Cl)cc5)C4)sc3c2)c1F (stereo not drawn) , can you help?
a: 86.7

q: Looking for the measured growth of COc1ccc2oc(=O)c(C3(C)NC(=O)c4c(/C=C/C(=O)OC(C)(C)C)cccc4N3)cc2c1 (stereo not drawn) , can you help?
a: 28.6
